- testTarget: human full length HSD11 β 1 (Homo sapiens)
- Construct: transient expression of human full length HSD11 β 1 expression vector; host or cells: CHO cells (transient transfection)
- testMethodNotes: In Vitro HSD11β1 Inhibition Assay
- Assay type: cell-based
- condition: CHO cells transiently expressing human HSD11β1; 200 nM cortisone+500 uM NADPH overnight; cortisone to cortisol by LC/MS-MS; read-out: 11βHSD1 (IC50)
readoutName: IC50

> print(dat)
                                   compound                                testtarget  measvalue
1  Cc1cccc2c1c(CCC(=O)N1CCO[C@@H]3CCCC[C@H]31)cn2C (single isomer, unassigned) [Compound 62]  human full length HSD11 β 1 (Homo sapiens)   > 250 nM
2  CC1CC2CCCCC2N1C(=O)CCc1nc2ccccc2s1 (stereo not drawn) [Example 83]  human full length HSD11 β 1 (Homo sapiens)   > 250 nM
3  CC(CC(=O)N1CCCC2C(C(=O)O)CCCC21)c1c(C#N)n(C)c2cccc(C3CC3)c12 (stereo not drawn) [Compound 258]  human full length HSD11 β 1 (Homo sapiens)   > 250 nM
4  CC(C)C(CC(=O)N1CCCC2(C)CCCCC12)c1c[nH]c2cccc(F)c12 (single isomer, unassigned) [Example 116]  human full length HSD11 β 1 (Homo sapiens)   > 250 nM
5  CC(CC(=O)N1CCCC2C(C(=O)O)CCCC21)c1cn(C)c2cccc(C3CC3)c12 (single isomer, unassigned) [Compound 213]  human full length HSD11 β 1 (Homo sapiens)   > 250 nM
6  CC(CC(=O)N1CCC2CCCCC21)c1nc2ccccc2s1 (stereo not drawn) [Example 142]  human full length HSD11 β 1 (Homo sapiens)   < 100 nM

Please supply IC50 for each of the following items, keeping them in order.
1. Cc1cccc2nn(C(C)CC(=O)N3CCC(C(=O)O)C4CCCCC43)nc12 (stereo not drawn) [Example 169]
2. CC(CC(=O)N1C(C)CCC2C(C(=O)O)CCCC21)c1c[nH]c2cccc(-c3cccs3)c12 (stereo not drawn) [Compound 233]
3. CC(C)(Sc1nc2ccccc2s1)C(=O)N1CCCC2CCCCC21 (stereo not drawn) [Example 74]

1. > 250 nM
2. > 250 nM
3. > 250 nM

Please supply IC50 for each of the following items, keeping them in order.
1. O=C(CCc1c[nH]c2ccccc12)N1CCCC2CCCCC21 (single isomer, unassigned) [Compound 53]
2. CC(CC(=O)N1CCCC2C(C(=O)O)CCCC21)c1cn(C2CC2)c2cccc(Cl)c12 (stereo not drawn) [Compound 261]
3. CC(CC(=O)N1CCOC2CCCCC21)c1c[nH]c2ncccc12 (stereo not drawn) [Compound 22]
4. Cc1cccc2c1c(CCC(=O)N1CCO[C@@H]3CCCC[C@H]31)cn2C (single isomer, unassigned) [Compound 65]
5. O=C1CCN(C(=O)CCc2c[nH]c3cc(F)ccc23)C2CCCCC12 (stereo not drawn) [Compound 43]
6. Cc1[nH]c2ccccc2c1CCC(=O)N1CCCC2CCCCC21 (stereo not drawn) [Compound 17]

["< 100 nM", "200 to 250 nM", "> 250 nM", "> 250 nM", "> 250 nM", "< 100 nM"]

====

- testTarget: human full length HSD11 β 1 (Homo sapiens, UniProt P28845)
- Construct: transient expression of human full length HSD11 β 1 expression vector; host or cells: CHO cells (transient transfection)
- Sequence (P28845 whole entry): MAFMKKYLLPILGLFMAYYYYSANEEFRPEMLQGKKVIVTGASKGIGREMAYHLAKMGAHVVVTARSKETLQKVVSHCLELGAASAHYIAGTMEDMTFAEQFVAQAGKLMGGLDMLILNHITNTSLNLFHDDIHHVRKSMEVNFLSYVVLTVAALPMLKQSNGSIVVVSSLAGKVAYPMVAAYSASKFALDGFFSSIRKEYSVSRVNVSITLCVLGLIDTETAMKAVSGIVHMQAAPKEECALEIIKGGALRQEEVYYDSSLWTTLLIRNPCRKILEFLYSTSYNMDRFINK
- testMethodNotes: In Vitro HSD11β1 Inhibition Assay
- Type: cell-based
- condition: CHO cells transiently expressing human HSD11β1; 200 nM cortisone+500 uM NADPH overnight; cortisone to cortisol by LC/MS-MS; read-out: 11βHSD1 (IC50)
- Description: In Vitro HSD11β1 Inhibition Assay: CHO cells were maintained in Dulbecco's modified Eagle's medium/nutrient mixture F-12 containing 5% fetal bovine serum (v/v) and 2 mM glutamine. Cells were cultured at 37° C. with 5% CO2. […] The enzymatic activity or inhibition of enzyme activity was measured by estimating the conversion of cortisone to cortisol by LC/MS-MS method. The IC50 in nM was calculated from an 8 point log scale of concentration versus inhibition.
Where a name gives a salt, the structure may show the parent alone.
For each record, write down the corresponding IC50.

Past entries and their recorded results:
> print(dat)
                                   compound  measvalue
1  CC(CC(=O)N1CCCC2C(C(=O)O)CCCC21)c1c[nH]c2cccc(-c3ccco3)c12 (stereo not drawn) [Compound 221]   < 100 nM
2  CC(C)C(CC(=O)N1CCC(C(=O)O)C2CCCCC21)c1c[nH]c2ccccc12 (stereo not drawn) [Example 107, sodium salt]   > 250 nM

Kindly review the next compound as well.
Tested on human full length HSD11 β 1 (Homo sapiens, UniProt P28845), the item O=C(Cc1c[nH]c2ccc(F)cc12)N1CCCC2CCCCC21 (stereo not drawn) [Compound 10] showed IC50 equal to 100 to 150 nM
